Values compiled from patent US12617762B2.

Assay: Hepatocyte stability assay, human
Type: in vitro ADME
Conditions: human, hepatocytes, Hepatocyte stability T½
Would you mind telling me the reported half-life at 10 μM of each entry?

• C=C(Cc1nc(C(F)(F)c2ccc(S(F)(F)(F)(F)F)cc2)no1)C(=O)O = 1.75 h
• C=C(Cc1nc(C2(c3ccc(C(F)(F)F)c(Cl)c3)CC2)no1)C(=O)O = 0.533 h
• C=C(Cc1nc(Cc2ccc(Cl)c(Cl)c2)no1)C(=O)O = 4 h
• C=C(Cc1nc(Cc2ccc(CCCCC)cc2)no1)C(=O)O = 0.2 h
• CCCCOc1ccc(-c2noc(/C=C(\C)C(=O)O)n2)cc1 = 0.583 h

Record half-life at 10 μM for all entries; do not skip any.
1. C=C(Cc1nc(C2(c3ccc(OC)cc3)CC2)no1)C(=O)O
2. C=C(Cc1nc(C2(c3ccc(C4CCC4)cc3)CC2)no1)C(=O)O

A:
2.97 h
0.717 h

Record half-life at 10 μM for all entries; do not skip any.
1. C=C(Cc1nc(CCc2ccc(Cl)cc2)no1)C(=O)O
2. C=C(Cc1nc(C(F)(F)c2ccc(Cl)cc2)no1)C(=O)O

A:
["2.9 h", "> 7.17 h"]

====

Would you mind telling me the reported hepatocyte CLint at 10 μM of each entry?
Assay: Hepatocyte stability assay, mouse
Format: in vitro ADME
Settings: mouse, hepatocytes, Hepatocyte stability Clint
Structures can show the parent of a compound that is named as a salt.

Examples with their reported hepatocyte CLint at 10 μM follow.
* C=C(Cc1cc(CCCCCCCC)ccn1)C(=O)O [Example 104, trifluoroacetic acid salt] | > 460 µL/min/1e6 cells
* C=C(Cc1nc(CCCCCCC)no1)C(=O)O [Example 6] | 185 µL/min/1e6 cells

Record hepatocyte CLint at 10 μM for all entries; do not skip any.
1. C=C(Cc1nc(Cc2ccc(C(F)(F)F)cc2)no1)C(=O)O [Example 42]
2. C=C(Cc1nc(C2(c3ccc(SC(F)(F)F)cc3)CC2)no1)C(=O)O [Example 86]
3. C=C(Cc1nc(Cc2ccc(C3CCC3)cc2)no1)C(=O)O [Example 128]

A:
["11 µL/min/1e6 cells", "17 µL/min/1e6 cells", "256 µL/min/1e6 cells"]

====

Test: Hepatocyte stability assay, human
Assay type: in vitro ADME
Conditions: human, hepatocytes, Hepatocyte stability Clint
Description: Defrosted cryo-preserved hepatocytes (viability >70%) were used to determine the metabolic stability of a compound via calculation of intrinsic clearance (CIint; a measure of the removal of a compound from the liver in the absence of blood flow and cell binding). […] The metabolic stability in hepatocytes assay involves a time-dependent reaction using both positive and negative controls. […] 80 μL of clear supernatant was removed and mixed with 80 μL of deionised water before being analysed by LC-MS/MS. […]
Would you mind telling me the reported hepatocyte CLint at 10 μM of each entry?

Examples with their reported hepatocyte CLint at 10 μM follow.
* CCCCCCCCc1noc(/C=C(\C)C(=O)O)n1 | 260 µL/min/1e6 cells
* C=C(Cc1nc(Cc2ccc(C3CCCC3)cc2)no1)C(=O)O | 25 µL/min/1e6 cells
* C=C(Cc1nnc(CCCCCCCC)o1)C(=O)O | 95 µL/min/1e6 cells

Record hepatocyte CLint at 10 μM for all entries; do not skip any.
1. C=C(Cc1nc(C(F)(F)c2ccc(C)c(Cl)c2)no1)C(=O)O
2. C=C(Cc1nc(Cc2ccc(OCCCC)cc2)no1)C(=O)O

A:
1. 53 µL/min/1e6 cells
2. 24 µL/min/1e6 cells
